Measured IC50 on Acetylcholinesterase (Electrophorus electricus, UniProt O42275) follows.
Sequence (O42275 whole entry): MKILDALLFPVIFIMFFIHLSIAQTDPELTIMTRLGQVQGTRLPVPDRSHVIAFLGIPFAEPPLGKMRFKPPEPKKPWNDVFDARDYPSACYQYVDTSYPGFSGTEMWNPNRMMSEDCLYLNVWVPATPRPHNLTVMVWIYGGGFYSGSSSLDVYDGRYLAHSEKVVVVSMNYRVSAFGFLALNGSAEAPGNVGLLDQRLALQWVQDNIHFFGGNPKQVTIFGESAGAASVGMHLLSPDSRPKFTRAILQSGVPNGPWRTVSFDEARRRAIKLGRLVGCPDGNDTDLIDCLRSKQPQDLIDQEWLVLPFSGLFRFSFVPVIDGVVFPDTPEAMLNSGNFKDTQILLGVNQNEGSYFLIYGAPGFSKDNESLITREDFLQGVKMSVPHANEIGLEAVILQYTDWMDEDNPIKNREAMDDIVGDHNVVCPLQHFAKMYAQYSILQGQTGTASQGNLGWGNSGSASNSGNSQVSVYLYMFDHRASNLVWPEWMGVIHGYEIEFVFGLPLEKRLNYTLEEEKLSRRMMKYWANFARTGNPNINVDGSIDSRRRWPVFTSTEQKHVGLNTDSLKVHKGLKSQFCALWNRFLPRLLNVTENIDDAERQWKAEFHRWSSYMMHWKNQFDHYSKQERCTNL
MEASURED PARAMETER: IC50 (nM)

smiles_representation=O=C(CC[n+]1ccccc1)Nc1ccc(/C=C2\CCCn3c2nc2cc(Cl)ccc2c3=O)cc1 inequality_operator== result_value=820
smiles_representation=O=C(NCCCN1CCCC1)c1ccc(/C=C2\CCn3c2nc2cc(Cl)ccc2c3=O)cc1 inequality_operator== result_value=1440
smiles_representation=O=C(NCCN1CCCC1)c1ccc(/C=C2\CCn3c2nc2cc(Cl)ccc2c3=O)cc1 inequality_operator== result_value=45
smiles_representation=CCN(CC)CCC(=O)Nc1ccc(/C=C2\CCCn3c2nc2cc(Cl)ccc2c3=O)cc1 inequality_operator=> result_value=1000
smiles_representation=O=C(NCCCN1CCCC1)c1ccc(/C=C2\CCCn3c2nc2cc(Cl)ccc2c3=O)cc1 inequality_operator== result_value=1210
smiles_representation=O=C(CCN1CCCC1)Nc1ccc(/C=C2\CCCn3c2nc2cc(Cl)ccc2c3=O)cc1 inequality_operator=> result_value=1000
smiles_representation=CN(C)CCCNC(=O)c1ccc(/C=C2\CCn3c2nc2cc(Cl)ccc2c3=O)cc1 inequality_operator== result_value=1420
smiles_representation=CN(C)CCNC(=O)c1ccc(/C=C2\CCCn3c2nc2cc(Cl)ccc2c3=O)cc1 inequality_operator== result_value=360
smiles_representation=O=C(NCCN1CCCC1)c1ccc(/C=C2\CCCn3c2nc2cc(Cl)ccc2c3=O)cc1 inequality_operator== result_value=1510

====

Measured log10(IC50) on Acetylcholinesterase (Electrophorus electricus) follows.
MEASURED PARAMETER: log10(IC50) (log10 of the value in nM)

smiles_representation=O=C(CC[n+]1ccccc1)Nc1ccc(/C=C2\CCn3c2nc2cc(Cl)ccc2c3=O)cc1 result_value=1.69
smiles_representation=O=C(CCN1CCCC1)Nc1ccc(/C=C2\CCn3c2nc2cc(Cl)ccc2c3=O)cc1 result_value=1.61
smiles_representation=CN(C)CCNC(=O)c1ccc(/C=C2\CCn3c2nc2cc(Cl)ccc2c3=O)cc1 result_value=2.20
smiles_representation=O=C(CCN1CCCCC1)Nc1ccc(/C=C2\CCCn3c2nc2cc(Cl)ccc2c3=O)cc1 result_value=1.49
smiles_representation=O=C(CCN1CCCCC1)Nc1ccc(/C=C2\CCn3c2nc2cc(Cl)ccc2c3=O)cc1 result_value=1.36
smiles_representation=CCN(CC)CCC(=O)Nc1ccc(/C=C2\CCn3c2nc2cc(Cl)ccc2c3=O)cc1 result_value=1.78
smiles_representation=CN(C)CCCNC(=O)c1ccc(/C=C2\CCCn3c2nc2cc(Cl)ccc2c3=O)cc1 result_value=3.31

====

EXPERIMENT NOTES: Inhibition of amyloid beta (1 to 40) self-mediated aggregation at 10 uM after 72 hrs by thioflavin T based fluorometric assay relative to control
Threshold rule: inhibition greater than or equal to 50% is YES; below that, NO.

smiles_representation=O=C(CC[n+]1ccccc1)Nc1ccc(/C=C2\CCCn3c2nc2cc(Cl)ccc2c3=O)cc1 cat=NO
smiles_representation=O=C(CCN1CCCC1)Nc1ccc(/C=C2\CCCn3c2nc2cc(Cl)ccc2c3=O)cc1 cat=YES
smiles_representation=O=C(NCCCN1CCCC1)c1ccc(/C=C2\CCn3c2nc2cc(Cl)ccc2c3=O)cc1 cat=NO
smiles_representation=CCN(CC)CCC(=O)Nc1ccc(/C=C2\CCCn3c2nc2cc(Cl)ccc2c3=O)cc1 cat=YES
smiles_representation=CN(C)CCCNC(=O)c1ccc(/C=C2\CCn3c2nc2cc(Cl)ccc2c3=O)cc1 cat=YES
smiles_representation=O=C(NCCN1CCCC1)c1ccc(/C=C2\CCn3c2nc2cc(Cl)ccc2c3=O)cc1 cat=YES
smiles_representation=O=C(NCCN1CCCC1)c1ccc(/C=C2\CCCn3c2nc2cc(Cl)ccc2c3=O)cc1 cat=YES
smiles_representation=CN(C)CCNC(=O)c1ccc(/C=C2\CCn3c2nc2cc(Cl)ccc2c3=O)cc1 cat=NO
smiles_representation=O=C(CCN1CCCC1)Nc1ccc(/C=C2\CCn3c2nc2cc(Cl)ccc2c3=O)cc1 cat=YES
smiles_representation=CN(C)CCNC(=O)c1ccc(/C=C2\CCCn3c2nc2cc(Cl)ccc2c3=O)cc1 cat=YES
smiles_representation=O=C(NCCCN1CCCC1)c1ccc(/C=C2\CCCn3c2nc2cc(Cl)ccc2c3=O)cc1 cat=YES
smiles_representation=O=C(CCN1CCCCC1)Nc1ccc(/C=C2\CCCn3c2nc2cc(Cl)ccc2c3=O)cc1 cat=YES
smiles_representation=CCN(CC)CCC(=O)Nc1ccc(/C=C2\CCn3c2nc2cc(Cl)ccc2c3=O)cc1 cat=NO
